# Assay target: human TREM2/DAP12 fusion protein (human, UniProt O43914 41-113, limits assumed)
# Sequence (O43914 other isoform, or with tags, fused parts or gaps limits assumed): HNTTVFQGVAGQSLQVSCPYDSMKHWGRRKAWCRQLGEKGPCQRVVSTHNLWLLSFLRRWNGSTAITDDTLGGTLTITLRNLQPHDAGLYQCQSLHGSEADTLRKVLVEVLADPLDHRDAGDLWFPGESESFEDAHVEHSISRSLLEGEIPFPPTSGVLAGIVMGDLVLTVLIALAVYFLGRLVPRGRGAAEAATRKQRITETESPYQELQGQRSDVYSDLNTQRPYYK
# Assay explanation: cell-based or functional assay
Readout type: BW Luc assay soluble 7.3 nM IgG, FOC (FOC)
Please reply with the bare figure in FOC and do not write the unit itself.

Here's what some known entries look like.
Binder	Readout type	Reported value
AL2p-38 (antibody, V domains shown, Fab and IgG formats under one id) VH: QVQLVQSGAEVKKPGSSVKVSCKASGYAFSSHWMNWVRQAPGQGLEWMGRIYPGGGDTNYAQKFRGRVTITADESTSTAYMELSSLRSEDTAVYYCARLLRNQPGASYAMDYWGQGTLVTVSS VL: GVVMTQTPLSLSVTPGQPASISCRSSRSLVHSNRYTYLHWYLQKPGQSPQLLIYKVSNRRSGVPDRFSGSGSGTDFTLKISRVEAEDVGVYYCSQSTRVPYTFGQGTKLEIK	BW Luc assay soluble 7.3 nM IgG, FOC	4.98
AL2p-55 (antibody, V domains shown, same VH/VL entries as AL2p-56; Fab and IgG formats under one id) VH: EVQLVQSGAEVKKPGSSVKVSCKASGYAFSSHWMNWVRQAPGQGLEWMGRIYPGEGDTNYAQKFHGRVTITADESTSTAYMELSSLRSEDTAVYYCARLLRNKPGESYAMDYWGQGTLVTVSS VL: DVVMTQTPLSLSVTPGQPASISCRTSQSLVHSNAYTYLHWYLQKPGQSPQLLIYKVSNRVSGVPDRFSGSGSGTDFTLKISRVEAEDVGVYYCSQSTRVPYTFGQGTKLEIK	BW Luc assay soluble 7.3 nM IgG, FOC	2.08
AL2p-31 (antibody, V domains shown, Fab and IgG formats under one id) VH: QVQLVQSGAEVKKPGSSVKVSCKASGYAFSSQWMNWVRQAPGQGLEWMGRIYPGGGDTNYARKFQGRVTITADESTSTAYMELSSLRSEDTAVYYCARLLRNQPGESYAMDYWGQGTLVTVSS VL: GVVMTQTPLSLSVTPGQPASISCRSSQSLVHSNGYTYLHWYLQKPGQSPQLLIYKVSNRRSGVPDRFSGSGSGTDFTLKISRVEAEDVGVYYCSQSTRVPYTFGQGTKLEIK	BW Luc assay soluble 7.3 nM IgG, FOC	4.48
AL2p-49 (antibody, V domains shown, Fab and IgG formats under one id) VH: EVQLVQSGAEVKKPGSSVKVSCKASGYAFSSDWMNWVRQAPGQGLEWMGRIYPGEGDTNYARKFHGRVTITADESTSTAYMELSSLRSEDTAVYYCARLLRNKPGESYAMDYWGQGTLVTVSS VL: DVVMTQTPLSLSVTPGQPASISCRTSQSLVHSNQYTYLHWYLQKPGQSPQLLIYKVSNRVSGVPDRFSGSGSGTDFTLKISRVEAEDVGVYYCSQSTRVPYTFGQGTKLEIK	BW Luc assay soluble 7.3 nM IgG, FOC	3.28

I am curious: what BW Luc assay soluble 7.3 nM IgG, FOC value has been reported for AL2p-42 (antibody, V domains shown, Fab and IgG formats under one id) VH: QVQLVQSGAEVKKPGSSVKVSCKASGYAFSSHWMNWVRQAPGQGLEWMGRIYPGEGDTNYAQKFRGRVTITADESTSTAYMELSSLRSEDTAVYYCARLLRNQPGASYAMDYWGQGTLVTVSS VL: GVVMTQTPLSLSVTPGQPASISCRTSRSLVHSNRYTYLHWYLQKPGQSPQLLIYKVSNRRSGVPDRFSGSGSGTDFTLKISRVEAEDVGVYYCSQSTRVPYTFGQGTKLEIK ?
5.95
